Target: recombinant human 17β-HSD2 (Homo sapiens, UniProt P37059)
Construct: made in house; host or cells: Sd9 (Sf9) insect cells, baculovirus (Bac to Bac Expression System); fractionated cell extract
Sequence (P37059 1-387): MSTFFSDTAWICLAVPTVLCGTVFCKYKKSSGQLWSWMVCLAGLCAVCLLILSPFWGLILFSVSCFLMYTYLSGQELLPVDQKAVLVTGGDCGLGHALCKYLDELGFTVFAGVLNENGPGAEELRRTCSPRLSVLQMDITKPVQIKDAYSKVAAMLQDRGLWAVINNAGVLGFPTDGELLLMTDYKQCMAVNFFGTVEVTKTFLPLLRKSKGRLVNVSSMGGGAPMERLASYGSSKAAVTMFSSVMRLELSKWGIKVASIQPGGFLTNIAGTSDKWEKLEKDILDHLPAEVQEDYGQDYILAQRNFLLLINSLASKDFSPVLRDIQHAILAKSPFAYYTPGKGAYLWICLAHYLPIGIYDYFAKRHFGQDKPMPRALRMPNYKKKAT
Experiment: Inhibition of recombinant human 17β-HSD2 (conversion of 3H-estradiol to estrone, HPLC)
Type: biochemical
Settings: inhibitor 1 μM; 50 nM estradiol, 1 mM NADH, 30 min at RT
readout.label: inhibition at 1 µM (%)
Lab book: enter the figure in %, no units written.

Annotate the compound C=CCO/N=C1\C[C@@H](CCC(=O)Nc2ncc(C)s2)C2C3CCc4cc(O)c([N+](=O)[O-])cc4C3CC[C@]12C (stereo partly shown) with its measured inhibition at 1 µM.
1

Annotate the compound Cc1cnc(NC(=O)CC[C@@H]2C/C(=N\NC(N)=O)[C@@]3(C)CCC4c5ccc(O)cc5CCC4C23)s1 (stereo partly shown) with its measured inhibition at 1 µM.
5

Annotate the compound CO/N=C1\C[C@@H](CCC(=O)Nc2ncc(C)s2)C2C3CCc4cc(OC(C)=O)ccc4C3CC[C@]12C (stereo partly shown) with its measured inhibition at 1 µM.
1

Annotate the compound Cc1cnc(NC(=O)CC[C@@H]2c3c[nH]nc3[C@@]3(C)CCC4c5cc(C(C)(C)C)c(O)cc5CCC4C23)s1 (stereo partly shown) with its measured inhibition at 1 µM.
13

Annotate the compound Cc1cnc(NC(=O)CC[C@@H]2c3c[nH]nc3[C@@]3(C)CCC4c5ccc(O)c([N+](=O)[O-])c5CCC4C23)s1 (stereo partly shown) with its measured inhibition at 1 µM.
39

Annotate the compound CO/N=C1\C[C@@H](CCC(=O)Nc2ncc(C)s2)C2C3CCc4cc(O)c(F)cc4C3CC[C@]12C (stereo partly shown) with its measured inhibition at 1 µM.
5

Annotate the compound Cc1cnc(NC(=O)CC[C@@H]2C/C(=N\O)[C@@]3(C)CCC4c5ccc6ocnc6c5CCC4C23)s1 (stereo partly shown) with its measured inhibition at 1 µM.
5

###

biological target: recombinant human 17β-HSD1 (Homo sapiens); construct: made in house; host or cells: Sd9 (Sf9) insect cells, baculovirus (Bac to Bac Expression System); microsomal fraction; experiment: Inhibition of recombinant human 17β-HSD1 (conversion of 3H-estrone to estradiol, HPLC); assay type: biochemical; conditions: inhibitor 1 μM; 30 nM estrone, 1 mM NADPH, 30 min at RT; read-out: 17β-HDS1 Inhibition % at 1 μM
Sequence (P14061 whole entry): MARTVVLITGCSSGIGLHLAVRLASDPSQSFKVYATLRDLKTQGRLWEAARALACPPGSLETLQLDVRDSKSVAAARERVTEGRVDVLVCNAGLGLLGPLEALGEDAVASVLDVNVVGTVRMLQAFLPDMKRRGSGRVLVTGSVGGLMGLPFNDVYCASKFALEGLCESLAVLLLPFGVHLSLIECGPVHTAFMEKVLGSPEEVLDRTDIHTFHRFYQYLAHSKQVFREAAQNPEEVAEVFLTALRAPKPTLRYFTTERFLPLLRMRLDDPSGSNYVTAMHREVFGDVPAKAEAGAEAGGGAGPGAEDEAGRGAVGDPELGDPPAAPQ
readout.label: inhibition at 1 µM (%)
Lab book: enter the figure in %, no units written.

Look up and report measured inhibition at 1 µM (recombinant human 17β-HSD1 (Homo sapiens)) for the following molecule: C=CCO/N=C1\C[C@@H](CCC(=O)Nc2ncc(C)s2)C2C3CCc4cc(O)c([N+](=O)[O-])cc4C3CC[C@]12C (some centres unmarked)
80

Look up and report measured inhibition at 1 µM (recombinant human 17β-HSD1 (Homo sapiens)) for the following molecule: COCC/N=C1\C[C@@H](CCC(=O)Nc2ncc(C)s2)C2C3CCc4cc(O)ccc4C3CC[C@]12C (some centres unmarked)
94

Look up and report measured inhibition at 1 µM (recombinant human 17β-HSD1 (Homo sapiens)) for the following molecule: Cc1cnc(NC(=O)CC[C@@H]2C/C(=N\CC(C)C)[C@@]3(C)CCC4c5ccc(O)cc5CCC4C23)s1 (some centres unmarked)
94

Look up and report measured inhibition at 1 µM (recombinant human 17β-HSD1 (Homo sapiens)) for the following molecule: Cc1cnc(NC(=O)CC[C@@H]2c3c[nH]nc3[C@@]3(C)CCC4c5ccccc5CCC4C23)s1 (some centres unmarked)
94

Look up and report measured inhibition at 1 µM (recombinant human 17β-HSD1 (Homo sapiens)) for the following molecule: Cc1cnc(NC(=O)CC[C@@H]2c3conc3[C@@]3(C)CCC4c5cc(Br)c(O)c(Br)c5CCC4C23)s1 (some centres unmarked)
79

Look up and report measured inhibition at 1 µM (recombinant human 17β-HSD1 (Homo sapiens)) for the following molecule: Cc1cnc(NC(=O)CC[C@@H]2c3c[nH]nc3[C@@]3(C)CCC4c5cc([N+](=O)[O-])c(O)cc5CCC4C23)s1 (some centres unmarked)
69

Look up and report measured inhibition at 1 µM (recombinant human 17β-HSD1 (Homo sapiens)) for the following molecule: CO/N=C1\C[C@@H](CCC(=O)Nc2ncc(C)s2)C2C3CCc4cc(O)c(CN5CCOCC5)cc4C3CC[C@]12C (some centres unmarked)
57

Look up and report measured inhibition at 1 µM (recombinant human 17β-HSD1 (Homo sapiens)) for the following molecule: Cc1cnc(NC(=O)CC[C@@H]2C/C(=N\O)[C@@]3(C)CCC4c5ccc6ocnc6c5CCC4C23)s1 (some centres unmarked)
70

Look up and report measured inhibition at 1 µM (recombinant human 17β-HSD1 (Homo sapiens)) for the following molecule: CO/N=C1\C[C@@H](CCC(=O)Nc2ncc(C)s2)C2C3CCc4cc(OC(=O)CN(C)C)ccc4C3CC[C@]12C (some centres unmarked)
88

Look up and report measured inhibition at 1 µM (recombinant human 17β-HSD1 (Homo sapiens)) for the following molecule: CO/N=C1\C[C@@H](CCC(=O)Nc2ncc(C)s2)C2C3CCc4c(ccc(O)c4F)C3CC[C@]12C (some centres unmarked)
90

Look up and report measured inhibition at 1 µM (recombinant human 17β-HSD1 (Homo sapiens)) for the following molecule: Cc1cnc(NC(=O)CC[C@@H]2C/C(=N\NC(N)=O)[C@@]3(C)CCC4c5ccc(O)cc5CCC4C23)s1 (some centres unmarked)
83

Look up and report measured inhibition at 1 µM (recombinant human 17β-HSD1 (Homo sapiens)) for the following molecule: CCO/N=C1\C[C@@H](CCC(=O)Nc2ncc(C)s2)C2C3CCc4cc(O)ccc4C3CC[C@]12C (some centres unmarked)
94

Look up and report measured inhibition at 1 µM (recombinant human 17β-HSD1 (Homo sapiens)) for the following molecule: C=CCO/N=C1\C[C@@H](CCC(=O)Nc2ncc(C)s2)C2C3CCc4cc(O)ccc4C3CC[C@]12C (some centres unmarked)
70

Look up and report measured inhibition at 1 µM (recombinant human 17β-HSD1 (Homo sapiens)) for the following molecule: Cc1cnc(NC(=O)CC[C@@H]2C/C(=N\OCC(=O)O)[C@@]3(C)CCC4c5ccc(O)cc5CCC4C23)s1 (some centres unmarked)
56
